This listing pairs compounds with measured pIC50.
target: SHP2^E76A protein (Homo sapiens (Human), UniProt Q06124, E76A); assay: SHP2 enzyme activity inhibition experiment; assay type: biochemical; conditions: SHP2 enzyme activity, Tables 1.1 and 1.2; read-out: IC50
Sequence (Q06124 whole entry E76A): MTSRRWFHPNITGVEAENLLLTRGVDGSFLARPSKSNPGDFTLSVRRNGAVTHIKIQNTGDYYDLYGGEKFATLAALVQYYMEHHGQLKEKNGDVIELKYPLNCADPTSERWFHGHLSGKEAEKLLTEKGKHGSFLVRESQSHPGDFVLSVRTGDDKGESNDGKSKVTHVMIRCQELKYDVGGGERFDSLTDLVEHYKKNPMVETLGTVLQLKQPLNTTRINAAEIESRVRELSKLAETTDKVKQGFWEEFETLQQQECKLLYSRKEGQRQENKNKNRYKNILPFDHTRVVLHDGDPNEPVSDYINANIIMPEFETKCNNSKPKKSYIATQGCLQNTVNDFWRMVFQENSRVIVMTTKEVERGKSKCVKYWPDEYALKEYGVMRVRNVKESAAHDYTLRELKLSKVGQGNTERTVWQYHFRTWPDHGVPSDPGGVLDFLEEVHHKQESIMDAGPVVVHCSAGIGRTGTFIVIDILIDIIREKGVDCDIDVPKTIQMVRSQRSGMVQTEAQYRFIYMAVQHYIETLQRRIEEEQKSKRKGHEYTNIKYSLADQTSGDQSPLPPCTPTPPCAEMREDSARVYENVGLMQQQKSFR
pIC50: −log10 of the molar value.

{"Compound": "N[C@@H]1CCC12CCN(c1ncc(Sc3cccc(Cl)c3Cl)c3nccn13)CC2", "Measurement target": "SHP2^E76A protein (Homo sapiens (Human), UniProt Q06124, E76A)", "pIC50": "6.00 to 7.00"}
{"Compound": "CC1(CN)CCN(c2ncc(Sc3cccc(Cl)c3Cl)c3nncn23)CC1", "Measurement target": "SHP2^E76A protein (Homo sapiens (Human), UniProt Q06124, E76A)", "pIC50": "> 7.00"}
{"Compound": "CC(C)c1ccccc1Sc1cnc(N2CCC3(CCC[C@H]3N)CC2)n2cnnc12", "Measurement target": "SHP2^E76A protein (Homo sapiens (Human), UniProt Q06124, E76A)", "pIC50": "6.00 to 7.00"}
{"Compound": "CC1(N)CCN(c2ncc(Sc3cccc(Cl)c3Cl)c3ncnn23)CC1", "Measurement target": "SHP2^E76A protein (Homo sapiens (Human), UniProt Q06124, E76A)", "pIC50": "5.00 to 6.00"}
{"Compound": "Nc1cc(Sc2cnc(N3CCC4(CCC[C@H]4N)CC3)n3ncnc23)c(Cl)c(Cl)n1", "Measurement target": "SHP2^E76A protein (Homo sapiens (Human), UniProt Q06124, E76A)", "pIC50": "6.00 to 7.00"}
{"Compound": "COc1nccc(Sc2cnc(N3CCC4(CCC[C@H]4N)CC3)n3ccnc23)c1Cl", "Measurement target": "SHP2^E76A protein (Homo sapiens (Human), UniProt Q06124, E76A)", "pIC50": "> 7.00"}
{"Compound": "N[C@@H]1CCCC12CCN(c1ncc(Sc3ccnc(Cl)c3Cl)c3nncn13)CC2", "Measurement target": "SHP2^E76A protein (Homo sapiens (Human), UniProt Q06124, E76A)", "pIC50": "> 7.00"}
{"Compound": "C[C@@H]1OCC2(CCN(c3ncc(Sc4cc(N)nc(Cl)c4Cl)c4nncn34)CC2)[C@@H]1N", "Measurement target": "SHP2^E76A protein (Homo sapiens (Human), UniProt Q06124, E76A)", "pIC50": "> 7.00"}
{"Compound": "Nc1cc(Sc2cnc(N3CCC4(CCC[C@H]4N)CC3)n3cnnc23)c(Cl)cn1", "Measurement target": "SHP2^E76A protein (Homo sapiens (Human), UniProt Q06124, E76A)", "pIC50": "5.00 to 6.00"}
{"Compound": "N[C@@H]1CCCC12CCN(c1ncc(Sc3ccnc4ccccc34)c3nncn13)CC2", "Measurement target": "SHP2^E76A protein (Homo sapiens (Human), UniProt Q06124, E76A)", "pIC50": "> 7.00"}
{"Compound": "N[C@@H]1CCCC12CCN(c1ncc(Sc3ccccn3)c3nncn13)CC2", "Measurement target": "SHP2^E76A protein (Homo sapiens (Human), UniProt Q06124, E76A)", "pIC50": "5.00 to 6.00"}
{"Compound": "NCC1CCN(c2ncc(Sc3cccc(Cl)c3Cl)c3nccn23)C1 (centres unmarked)", "Measurement target": "SHP2^E76A protein (Homo sapiens (Human), UniProt Q06124, E76A)", "pIC50": "6.00 to 7.00"}
{"Compound": "N[C@@H]1COCC12CCN(c1ncc(Sc3ccnc(Cl)c3Cl)c3nncn13)CC2", "Measurement target": "SHP2^E76A protein (Homo sapiens (Human), UniProt Q06124, E76A)", "pIC50": "6.00 to 7.00"}
{"Compound": "CC1C[C@@H](N)C2(CCN(c3ncc(Sc4ccnc(N)c4Cl)c4nncn34)CC2)C1 (some centres unmarked)", "Measurement target": "SHP2^E76A protein (Homo sapiens (Human), UniProt Q06124, E76A)", "pIC50": "> 7.00"}
{"Compound": "NCC1(c2ccccc2)CCN(c2ncc(Sc3cccc(Cl)c3Cl)c3nccn23)CC1", "Measurement target": "SHP2^E76A protein (Homo sapiens (Human), UniProt Q06124, E76A)", "pIC50": "6.00 to 7.00"}
{"Compound": "N[C@@H]1COCC12CCN(c1ncc(Sc3ccnc(Cl)c3Cl)c3nccn13)CC2", "Measurement target": "SHP2^E76A protein (Homo sapiens (Human), UniProt Q06124, E76A)", "pIC50": "> 7.00"}
{"Compound": "CC1C[C@@H](N)C2(CCN(c3ncc(Sc4cccc(Cl)c4Cl)c4nncn34)CC2)C1 (some centres unmarked)", "Measurement target": "SHP2^E76A protein (Homo sapiens (Human), UniProt Q06124, E76A)", "pIC50": "> 7.00"}
{"Compound": "N[C@@H]1CCCC12CCN(c1ncc(Sc3cccc(Cl)c3Cl)c3nccn13)CC2", "Measurement target": "SHP2^E76A protein (Homo sapiens (Human), UniProt Q06124, E76A)", "pIC50": "> 7.00"}
{"Compound": "N[C@@H]1CCCCC12CCN(c1ncc(Sc3cccc(Cl)c3Cl)c3nccn13)CC2", "Measurement target": "SHP2^E76A protein (Homo sapiens (Human), UniProt Q06124, E76A)", "pIC50": "6.00 to 7.00"}
{"Compound": "N[C@@H]1CCCC12CCN(c1ncc(Sc3ccncc3C(F)(F)F)c3ncnn13)CC2", "Measurement target": "SHP2^E76A protein (Homo sapiens (Human), UniProt Q06124, E76A)", "pIC50": "5.00 to 6.00"}
